Values from ChEMBL document CHEMBL2321795

Assay: Oral bioavailability in Sprague-Dawley rat at 15 mg/kg
Assay type: ADME, organism-based
Settings: in vivo
compounds and their reported bioavailability
// note: answer is a bare numeric in %

>>> numeric_result("CN1C[C@@H](c2ccc(-c3ccc4c(c3)OC[C@H]3[C@H](CO)OC(=O)N43)cn2)OC1=O")
44.8
>>> numeric_result("N=C(N)NCCC[C@H](N)C(=O)O.N=C(N)NCCC[C@H](N)C(=O)O.O=C1OC(COP(=O)(O)O)CN1c1ccc(-c2ccc3c(c2)OC[C@H]2[C@H](CO)OC(=O)N32)cn1 (stereo partly drawn)")
32.6

# evaluate next
For reference, reported bioavailability for O=C1OC(COP(=O)([O-])[O-])CN1c1ccc(-c2ccc3c(c2)OC[C@H]2[C@H](CO)OC(=O)N32)cn1.[Na+].[Na+] (stereo partly drawn) stands at 19.7

###

Target: hERG (KCNH2) (Homo sapiens, UniProt Q12809)
Sequence (Q12809 whole entry): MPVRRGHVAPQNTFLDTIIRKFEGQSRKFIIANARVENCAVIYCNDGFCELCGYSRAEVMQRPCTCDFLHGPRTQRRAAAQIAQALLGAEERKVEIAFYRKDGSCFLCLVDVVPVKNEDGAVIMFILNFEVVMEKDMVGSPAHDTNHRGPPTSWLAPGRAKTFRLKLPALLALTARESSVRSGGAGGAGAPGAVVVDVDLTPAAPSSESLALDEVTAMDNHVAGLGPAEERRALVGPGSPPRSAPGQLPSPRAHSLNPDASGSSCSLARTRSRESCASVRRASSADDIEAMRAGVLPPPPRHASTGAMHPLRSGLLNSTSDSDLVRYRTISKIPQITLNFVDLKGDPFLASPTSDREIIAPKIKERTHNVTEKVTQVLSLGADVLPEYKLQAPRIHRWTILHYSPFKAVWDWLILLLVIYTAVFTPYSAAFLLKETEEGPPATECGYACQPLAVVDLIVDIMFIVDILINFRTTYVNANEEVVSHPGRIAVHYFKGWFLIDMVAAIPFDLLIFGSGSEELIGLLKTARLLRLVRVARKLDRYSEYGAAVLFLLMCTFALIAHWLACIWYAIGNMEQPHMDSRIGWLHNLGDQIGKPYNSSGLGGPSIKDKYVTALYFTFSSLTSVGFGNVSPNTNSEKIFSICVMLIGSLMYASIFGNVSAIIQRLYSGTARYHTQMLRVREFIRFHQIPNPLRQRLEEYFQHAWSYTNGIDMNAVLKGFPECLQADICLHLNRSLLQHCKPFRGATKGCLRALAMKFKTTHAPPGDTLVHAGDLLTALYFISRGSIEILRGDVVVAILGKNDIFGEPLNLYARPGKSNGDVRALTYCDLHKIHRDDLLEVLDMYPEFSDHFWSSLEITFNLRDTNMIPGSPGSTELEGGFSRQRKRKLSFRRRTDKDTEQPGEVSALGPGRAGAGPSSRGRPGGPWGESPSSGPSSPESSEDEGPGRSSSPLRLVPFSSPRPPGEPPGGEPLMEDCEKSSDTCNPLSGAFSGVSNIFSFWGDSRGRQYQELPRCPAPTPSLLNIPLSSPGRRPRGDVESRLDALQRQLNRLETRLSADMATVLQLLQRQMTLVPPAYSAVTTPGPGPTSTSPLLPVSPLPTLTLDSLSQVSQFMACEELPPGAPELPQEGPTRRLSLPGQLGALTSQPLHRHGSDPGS
Assay: Inhibition of human ERG at 30 uM relative to control
READOUT_KIND: inhibition at 30 µM (%)
// note: answer is a bare numeric in %

For reference, reported inhibition at 30 µM for C[C@@H](O)C(=O)c1ccc(-c2ccc3c(c2)OC[C@H]2[C@H](CO)OC(=O)N32)cn1 stands at 18.4

###

compounds and their reported Tmax
Experiment: Tmax in Sprague-Dawley rat at 15 mg/kg, po by LC-MS analysis
Assay type: ADME, organism-based
Set-up: dose 15 mg/kg, route oral
Settings: in vivo
// note: answer is a bare numeric in min

Example entries and their recorded answers appear below.
>>> numeric_result("CN1C[C@@H](c2ccc(-c3ccc4c(c3)OC[C@H]3[C@H](CO)OC(=O)N43)cn2)OC1=O")
60
>>> numeric_result("N=C(N)NCCC[C@H](N)C(=O)O.N=C(N)NCCC[C@H](N)C(=O)O.O=C1OC(COP(=O)(O)O)CN1c1ccc(-c2ccc3c(c2)OC[C@H]2[C@H](CO)OC(=O)N32)cn1 (stereo partly drawn)")
15

# evaluate next
For reference, reported Tmax for O=C1OC(COP(=O)([O-])[O-])CN1c1ccc(-c2ccc3c(c2)OC[C@H]2[C@H](CO)OC(=O)N32)cn1.[Na+].[Na+] (stereo partly drawn) stands at 15

###

compounds and their reported Cmax
Test: Cmax in Sprague-Dawley rat at 15 mg/kg, po by LC-MS analysis
Format: ADME, organism-based
Set-up: dose 15 mg/kg, route oral
Details: in vivo
// note: answer is a bare numeric in ng/mL

For reference, reported Cmax for O=C1OC(COP(=O)([O-])[O-])CN1c1ccc(-c2ccc3c(c2)OC[C@H]2[C@H](CO)OC(=O)N32)cn1.[Na+].[Na+] (stereo partly drawn) stands at 650

For reference, reported Cmax for CN1C[C@@H](c2ccc(-c3ccc4c(c3)OC[C@H]3[C@H](CO)OC(=O)N43)cn2)OC1=O stands at 809

For reference, reported Cmax for N=C(N)NCCC[C@H](N)C(=O)O.N=C(N)NCCC[C@H](N)C(=O)O.O=C1OC(COP(=O)(O)O)CN1c1ccc(-c2ccc3c(c2)OC[C@H]2[C@H](CO)OC(=O)N32)cn1 (stereo partly drawn) stands at 416

###

Test system: Staphylococcus epidermidis
Test: Antibacterial activity against methicillin-sensitive Staphylococcus epidermidis after 16 hrs by NCCLS agar dilution method
Format: functional
compounds and their reported MIC
// note: answer is a bare numeric in µg/mL

>>> numeric_result("O=C1O[C@@H](CO)[C@@H]2COc3cc(-c4ccc(C(O)CO)nc4)ccc3N12 (some centres undefined)")
0.5

# evaluate next
For reference, reported MIC for O=C1O[C@@H](CO)[C@@H]2COc3cc(-c4ccc(C(O)C5CC5)nc4)ccc3N12 (some centres undefined) stands at 0.5
